tested on: Staphylococcus sp.; experiment: In vitro antibacterial evaluation: minimum inhibitory concentration (MIC), broth dilution method; format: cell-based; conditions: strain GC 3051

| compound | MIC Staphylococcus aureus (GC 3051) (µg/mL) |
| --- | --- |
| CC(c1ccccc1)C1NC(=O)CNC(=O)C(CO)NC(=O)C(CC2CNC(=N)N2C2OC(CO)C(O)C(O)C2O)NC(=O)C(CC2CNC(=N)N2)NC(=O)C(Cc2ccc(OC3OC(CO)C(OC4OC5COC6(OC5C(O)C4O)C4CC5CC(C4)CC6C5)C(O)C3O)cc2)NC1=O (centres unmarked) [Example 219] | 2 |
| CC(c1ccccc1)C1NC(=O)CNC(=O)C(CO)NC(=O)C(C(O)C2CNC(=N)N2C2OC(CO)C(O)C(O)C2O)NC(=O)C(C(O)C2CNC(=N)N2)NC(=O)C(Cc2ccc(OC3OC(CO)C(OC4OC(CO)C(O)C5OC(c6ccccc6)OC45)C(O)C3O)cc2)NC1=O (single isomer, unassigned) [Example 104a] | 0.5 |
| CC(c1ccccc1)C1NC(=O)CNC(=O)C(CO)NC(=O)C(C(O)C2CNC(=N)N2C2OC(CO)C(O)C(O)C2O)NC(=O)C(C(O)C2CNC(=N)N2)NC(=O)C(Cc2ccc(OC3OC(CO)C(OC4OC5COC(CCc6ccccc6)OC5C(O)C4O)C(O)C3O)cc2)NC1=O (centres unmarked) [Example 124] | 2 |
| CC(C1CCCCC1)C1NC(=O)CNC(=O)C(CO)NC(=O)C(C(O)C2CNC(=N)N2C2OC(CO)C(O)C(O)C2O)NC(=O)C(C(O)C2CNC(=N)N2)NC(=O)C(Cc2ccc(OC3OC(CO)C(OC4OC5COC(c6ccccc6)OC5C(O)C4O)C(O)C3O)cc2)NC1=O (centres unmarked) [Example 201] | 0.5 |
| CC(c1ccccc1)C1NC(=O)CNC(=O)C(CO)NC(=O)C(C(O)C2CNC(=N)N2C2OC(CO)C(O)C(O)C2O)NC(=O)C(C(O)C2CNC(=N)N2)NC(=O)C(Cc2ccc(OC3OC(CO)C(OC4OC5COC(c6ccc(C(=O)c7cc(I)c(I)c(I)c7)cc6)OC5C(O)C4O)C(O)C3O)cc2)NC1=O (centres unmarked) [Example 187] | 64 |
| CC(c1ccccc1)C1NC(=O)CNC(=O)C(CO)NC(=O)C(C(O)C2CNC(=N)N2C2OC(CO)C(O)C(O)C2O)NC(=O)C(C(O)C2CNC(=N)N2)NC(=O)C(Cc2ccc(OC3OC(CO)C(OC4OC5COC(c6ccsc6)OC5C(O)C4O)C(O)C3O)cc2)NC1=O (centres unmarked) [Example 133] | 1 |
| CC(c1ccc(Cl)cc1)C1NC(=O)CNC(=O)C(CO)NC(=O)C(C(O)C2CNC(=N)N2C2OC(CO)C(O)C(O)C2O)NC(=O)C(C(O)C2CNC(=N)N2)NC(=O)C(Cc2ccc(OC3OC(CO)C(OC4OC5COC(C6CCCCC6)OC5C(O)C4O)C(O)C3O)cc2)NC1=O (centres unmarked) [Example 193] | 1 |
| CC(c1ccccc1)C1NC(=O)CNC(=O)C(CO)NC(=O)C(C(O)C2CNC(=N)N2C2OC(CO)C(O)C(O)C2O)NC(=O)C(C(O)C2CNC(=N)N2)NC(=O)C(Cc2ccc(OC3OC(CO)C(OC4OC5COC(CC6CCCCC6)OC5C(O)C4O)C(O)C3O)cc2)NC1=O (centres unmarked) [Example 122] | 2 |
| CC(c1ccccc1)C1NC(=O)CNC(=O)C(CO)NC(=O)C(C(O)C2CNC(=N)N2C2OC(CO)C(O)C(O)C2O)NC(=O)C(C(O)C2CNC(=N)N2)NC(=O)C(Cc2ccc(OC3OC(CO)C(OC4OC(CO)C(O)C5OC6(CCCCCCCCCCCC6)OC45)C(O)C3O)cc2)NC1=O (centres unmarked) [Example 210a] | 8 |
| CCCCN1CC(C(O)C2NC(=O)C(C(O)C3CNC(=N)N3)NC(=O)C(Cc3ccc(OC4OC(CO)C(OC5OC6COC7(OC6C(O)C5O)C5CC6CC(C5)CC7C6)C(O)C4O)cc3)NC(=O)C(C(C)c3ccccc3)NC(=O)CNC(=O)C(CO)NC2=O)N(C2OC(CO)C(O)C(O)C2O)C1=N (centres unmarked) [Example 224] | 2 |
| CCCC(C)C1OCC2OC(OC3C(CO)OC(Oc4ccc(CC5NC(=O)C(C(C)c6ccc(Cl)cc6)NC(=O)CNC(=O)C(CO)NC(=O)C(C(O)C6CNC(=N)N6C6OC(CO)C(O)C(O)C6O)NC(=O)C(C(O)C6CNC(=N)N6)NC5=O)cc4)C(O)C3O)C(O)C(O)C2O1 (centres unmarked) [Example 194] | 1 |
| Cc1ccc(Oc2cccc(C3OCC4OC(OC5C(CO)OC(Oc6ccc(CC7NC(=O)C(C(C)c8ccccc8)NC(=O)CNC(=O)C(CO)NC(=O)C(C(O)C8CNC(=N)N8C8OC(CO)C(O)C(O)C8O)NC(=O)C(C(O)C8CNC(=N)N8)NC7=O)cc6I)C(O)C5O)C(O)C(O)C4O3)c2)cc1 (centres unmarked) [Example 197] | 64 |
| CC(c1ccccc1)C1NC(=O)CNC(=O)C(CO)NC(=O)C(C(O)C2CNC(=N)N2C2OC(CO)C(O)C(O)C2O)NC(=O)C(C(O)C2CNC(=N)N2)NC(=O)C(Cc2ccc(OC3OC(CO)C(OC4OC5COC(CC6CCN(C(=O)OCc7ccccc7)CC6)OC5C(O)C4O)C(O)C3O)cc2)NC1=O (centres unmarked) [Example 113] | 1 |

meta.source: patent US8247211B2
